Would you mind telling me the reported Tmax of each entry?
- Test summary: clinical
- Set-up: species or system human
- Test settings: human, in vivo
One number for each entry, in h.

O=C(c1cc(Cc2n[nH]c(=O)c3ccccc23)ccc1F)N1CCn2nc(C(F)(F)F)nc2C1	3

(Q) Return reported Tmax; argument: N#CC1(c2ccc(NC(=O)c3cccnc3NCc3ccncc3)cc2)CCCC1
(A) 2

Values from paper PMC9528096
